Readings of koff for the listed binders
assayed.target: T1, Human MuSK (R&D Systems, cat. 10189-MK, histidine tag) (human, UniProt O15146 24-495)
T1 construct: Bought protein; also called human monomeric MuSK-6xhis; not shown: histidine tag (6xhis)
T1 sequence: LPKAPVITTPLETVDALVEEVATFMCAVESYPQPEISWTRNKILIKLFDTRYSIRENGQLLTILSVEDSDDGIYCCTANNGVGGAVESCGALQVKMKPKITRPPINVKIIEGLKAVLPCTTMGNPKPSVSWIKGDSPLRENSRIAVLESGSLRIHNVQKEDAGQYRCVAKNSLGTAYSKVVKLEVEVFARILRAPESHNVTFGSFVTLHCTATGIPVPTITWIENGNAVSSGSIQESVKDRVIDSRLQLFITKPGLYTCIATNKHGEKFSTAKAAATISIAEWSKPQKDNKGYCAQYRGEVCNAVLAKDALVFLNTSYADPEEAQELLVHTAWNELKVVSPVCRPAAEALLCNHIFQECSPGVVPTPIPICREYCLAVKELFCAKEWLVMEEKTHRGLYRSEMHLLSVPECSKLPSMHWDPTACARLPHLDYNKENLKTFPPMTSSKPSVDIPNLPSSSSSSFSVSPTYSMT
assay.text: SPR (Biacore), antibody captured on anti-hFc chip; 10 nM; dissociation pH 5.5
Reply numerically in s⁻¹, unit not repeated.

Look over these answered cases.
3D10a (antibody, human IgG1, kappa, L234A L235A, V domains shown) VH: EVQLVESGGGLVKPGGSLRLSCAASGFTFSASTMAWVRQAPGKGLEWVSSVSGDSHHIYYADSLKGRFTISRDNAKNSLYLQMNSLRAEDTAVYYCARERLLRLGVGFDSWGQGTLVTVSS VL: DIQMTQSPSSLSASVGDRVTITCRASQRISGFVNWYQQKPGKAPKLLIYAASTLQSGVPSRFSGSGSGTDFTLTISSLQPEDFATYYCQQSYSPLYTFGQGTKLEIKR; 0.00011
4D3 (antibody, human IgG1, kappa, L234A L235A, V domains shown) VH: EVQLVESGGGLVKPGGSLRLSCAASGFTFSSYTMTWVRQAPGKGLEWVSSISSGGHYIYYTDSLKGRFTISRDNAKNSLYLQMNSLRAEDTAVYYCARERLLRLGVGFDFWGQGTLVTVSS VL: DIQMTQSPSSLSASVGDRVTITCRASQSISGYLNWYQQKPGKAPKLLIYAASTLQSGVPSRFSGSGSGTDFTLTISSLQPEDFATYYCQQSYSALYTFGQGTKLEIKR; 0.00019
3D9b (antibody, human IgG1, kappa, L234A L235A, V domains shown) VH: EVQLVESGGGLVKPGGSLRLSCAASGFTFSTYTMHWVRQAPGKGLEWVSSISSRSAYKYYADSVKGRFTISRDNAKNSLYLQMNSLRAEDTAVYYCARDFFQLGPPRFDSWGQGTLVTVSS VL: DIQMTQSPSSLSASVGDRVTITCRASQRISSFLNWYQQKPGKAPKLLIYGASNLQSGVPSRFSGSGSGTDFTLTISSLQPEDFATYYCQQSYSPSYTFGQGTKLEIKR; 4e-05

Here is another binder to look at.
# koff of 3F6c (antibody, human IgG1, kappa, L234A L235A, V domains shown) VH: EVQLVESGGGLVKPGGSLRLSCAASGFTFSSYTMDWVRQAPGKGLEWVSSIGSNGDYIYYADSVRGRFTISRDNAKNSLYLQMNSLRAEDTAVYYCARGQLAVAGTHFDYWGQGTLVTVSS VL: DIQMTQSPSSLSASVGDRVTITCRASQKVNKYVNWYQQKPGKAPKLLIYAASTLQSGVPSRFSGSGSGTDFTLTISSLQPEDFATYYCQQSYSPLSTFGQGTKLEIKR = 0.00023

Measured values drawn from patent US20230110188A1 for this set.
